- target.entity: T1, biotin-TUBA1A 440-451-[E]445 (human)
- T1 construct: C-terminal tail of human alpha-tubulin TUBA1A, amino acids 440-451, printed VEGEG[E]EEGEEY with [E] the monoglutamylated residue 445; source: synthetic peptide (Thermo Fisher Scientific)
- T1 peptide: Biotin-VEGEGE(Glu)EEGEEY
- assay.comment: SPR; steady-state binding assay, Biacore-T200; biotinylated peptides immobilized on a streptavidin (SA) sensor chip at 100-300 response units; A1aY1 titrated from 0.031 to 200 µM; 1x HBS-P+ (10 mM Hepes, 150 mM NaCl, 0.05% surfactant P20), 30 µl/min; 1:1 binding considered, one site total fit
- applied.conditions: both partners purified
Where no end group is shown, it is not given here. The star is where a group is joined. Biotin = O=C1N[C@H]2[C@H](CS[C@H]2CCCCC(=O)*)N1
result.type: Kd (µM)

INSERT INTO results (binder, value) VALUES
  ('A1aY1 binder (designed binder, A1aY1, an SSO7D mutant selected from a combinatorial yeast display library; (His6, thrombin site, A1aY1); Protein used in the SPR steady-state titrations; The results say ''without any tags''; the methods describe the stored protein as 9.3 kD, which is the size with His6 and thrombin site, and tell of thrombin cleavage only for the NMR sample; also called tyrosination sensor; source: E. coli …) MATVKFKYKGEEKQVDISKILSVGRYGKLIHFLYDLGGGKAGMGMVSEKDAPKELLQMLEKQKK', 13.6);
